Biological target: PCSK9 (Homo sapiens, UniProt Q8NBP7)
Sequence (Q8NBP7 153-692): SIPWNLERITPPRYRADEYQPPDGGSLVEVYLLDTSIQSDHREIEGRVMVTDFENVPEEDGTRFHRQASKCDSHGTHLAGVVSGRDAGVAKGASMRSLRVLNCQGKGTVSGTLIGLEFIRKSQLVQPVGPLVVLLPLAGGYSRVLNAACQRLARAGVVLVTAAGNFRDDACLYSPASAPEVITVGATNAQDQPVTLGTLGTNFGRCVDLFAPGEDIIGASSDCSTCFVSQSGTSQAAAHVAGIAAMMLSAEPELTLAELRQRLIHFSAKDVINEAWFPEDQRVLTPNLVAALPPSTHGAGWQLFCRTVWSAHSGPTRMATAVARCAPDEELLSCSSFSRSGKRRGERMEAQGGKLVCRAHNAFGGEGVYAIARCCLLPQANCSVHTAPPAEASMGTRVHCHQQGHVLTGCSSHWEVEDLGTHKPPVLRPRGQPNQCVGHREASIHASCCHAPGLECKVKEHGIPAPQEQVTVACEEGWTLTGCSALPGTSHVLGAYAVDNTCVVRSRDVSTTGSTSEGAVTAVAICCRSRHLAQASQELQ
Sequence (Q8NBP7 31-152 partner limits assumed): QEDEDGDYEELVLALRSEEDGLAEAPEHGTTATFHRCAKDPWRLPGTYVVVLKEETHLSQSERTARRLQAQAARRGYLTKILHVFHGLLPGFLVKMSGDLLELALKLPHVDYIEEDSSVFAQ
Assay: PCSK9-LDLR in vitro Binding Assay (ELISA)
Conditions: Concentration 1 μM; 1 µM
Protocol: The PCSK9-LDLR in vitro Binding Assay is a quantitative solid phase binding assay between PCSK9 and recombinant LDLR. Plates were pre-coated with a recombinant LDLR-AB domain, which binds PCSK9. […] The amount of bound PCSK9 is measured by binding it with biotinylated anti-His-tag monoclonal antibody, followed by binding with horseradish peroxidase conjugated streptavidin substrate. […] EC50 values were calculated by nonlinear regression analysis using graph pad prism software. […]
measuredMetric: % Inhibition PCSK9 (%)

1. Cc1oc(-c2ccncc2)nc1CC1COC(C)(C(=O)N2CCOCC2)OC1 (centres unmarked) [Example 82]
13
2. Cc1oc(-c2ccncc2)nc1CC1COC(C)(C(=O)N2CCOCC2)OC1 (centres unmarked) [Example 83]
20
3. Cc1oc(-c2ccccc2)nc1CCC1COC(C)(C(=O)NO)OC1 (centres unmarked) [Example 36]
10
4. Cc1oc(-c2ccncc2)nc1CC1COC(C)(C(=O)NO)OC1 (centres unmarked) [Example 80]
32

a: Cc1oc(-c2ccncc2)nc1CC1COC(C)(C(=O)NO)OC1 (centres unmarked) [Example 81]
b: Cc1ccc(-c2nc(CC3COC(C)(C(=O)N4CCOCC4)OC3)c(C)o2)cc1 (centres unmarked) [Example 67]
Inquiry: Looking only at measured % Inhibition PCSK9, which entry is lower, a or b ? Selection: enter the item's label.
Reply text: b
